Would you kindly list pIC50 for each of these molecules?
# System: rhinovirus B14
# EXPERIMENTAL PROTOCOL: Antiviral activity against Rhinovirus B14 infected in human HeLa cell line assessed as inhibition of virus-induced cytopathic effect measured after 72 hrs by crystal violet uptake assay
# Type: functional, organism-based
# STATED CONDITIONS: Rhinovirus B, HeLa, 72 h; read-out: IC50
Just so you know, pIC50 here is -log10 of the concentration in molar units; reply with that number alone.

Q: Any idea what its pIC50 is? The molecule is "Cc1cc(-c2noc(C(F)(F)F)n2)cc(C)c1OCCCc1cc(C(N)=O)no1"
Result: 6.66

Q: Any idea what its pIC50 is? The molecule is "CN(C)C(=O)c1cc(CCCOc2ccc(-c3noc(C(F)(F)F)n3)cc2C(F)(F)F)on1"
Result: 5.17

Q: Any idea what its pIC50 is? The molecule is "CN(C)C(=O)c1cc(CCCOc2ccc(-c3noc(C(F)(F)F)n3)cc2[N+](=O)[O-])on1"
Result: 6.55

Q: Any idea what its pIC50 is? The molecule is "Cc1cc(-c2noc(C(F)(F)F)n2)cc(C)c1OCCCc1cc(C(=O)N(C)C)no1"
Result: 6.92

Q: Any idea what its pIC50 is? The molecule is "Cc1cc(-c2noc(C(F)(F)F)n2)cc(C)c1OCCCc1cc(-c2ccccc2)no1"
Result: 6.28
